Biological target: T1, biotinylated recombinant human IL-12Rβ2 (produced in-house) (human, UniProt Q99665 24-622, random biotinylated)
T1 construct: also called hIL-12RB2; hIL12RB2
T1 sequence: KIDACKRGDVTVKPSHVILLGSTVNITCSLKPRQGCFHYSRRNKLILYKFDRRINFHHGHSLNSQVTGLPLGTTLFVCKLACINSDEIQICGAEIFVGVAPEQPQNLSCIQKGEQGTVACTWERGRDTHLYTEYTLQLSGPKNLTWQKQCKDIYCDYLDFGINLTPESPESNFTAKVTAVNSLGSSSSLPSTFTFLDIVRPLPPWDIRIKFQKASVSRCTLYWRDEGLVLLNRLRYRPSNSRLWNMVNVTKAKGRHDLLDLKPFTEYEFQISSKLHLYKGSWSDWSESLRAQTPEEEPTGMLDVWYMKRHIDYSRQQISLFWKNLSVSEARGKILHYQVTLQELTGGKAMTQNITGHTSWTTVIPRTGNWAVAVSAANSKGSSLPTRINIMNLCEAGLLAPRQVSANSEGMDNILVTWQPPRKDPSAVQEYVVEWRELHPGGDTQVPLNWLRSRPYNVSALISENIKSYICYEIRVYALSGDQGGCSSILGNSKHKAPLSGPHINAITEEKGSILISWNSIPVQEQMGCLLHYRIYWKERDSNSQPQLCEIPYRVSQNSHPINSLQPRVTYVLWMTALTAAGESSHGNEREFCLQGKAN
Test: BLI (Octet), P.E. VHH on immobilised biotinylated hIL-12RB2
In this section, each of the binders is paired with its reported Response.
Just the number.

binder | Response
anti-IL-12Rβ2 VHH clone 3CRHS106 (VHH, not shown: small tags and cut ends, tested as periplasmic extract) VHH: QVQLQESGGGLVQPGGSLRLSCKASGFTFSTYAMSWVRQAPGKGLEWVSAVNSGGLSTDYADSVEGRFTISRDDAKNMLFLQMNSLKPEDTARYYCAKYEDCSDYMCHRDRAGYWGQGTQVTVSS | 0.297
anti-IL-12Rβ2 VHH clone 3CRHM99 (VHH, not shown: small tags and cut ends, tested as periplasmic extract; also called 21062) VHH: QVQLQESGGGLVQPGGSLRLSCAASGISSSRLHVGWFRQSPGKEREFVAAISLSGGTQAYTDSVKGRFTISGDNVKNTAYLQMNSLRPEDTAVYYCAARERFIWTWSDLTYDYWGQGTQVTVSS | 1.45
anti-IL-12Rβ2 VHH clone 3CRHM14 (VHH, not shown: small tags and cut ends, tested as periplasmic extract) VHH: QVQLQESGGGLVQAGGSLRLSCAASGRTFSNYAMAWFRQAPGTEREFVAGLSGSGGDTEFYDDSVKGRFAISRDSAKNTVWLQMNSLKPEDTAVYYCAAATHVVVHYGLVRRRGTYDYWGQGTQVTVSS | 1.19

# input for lookup
input: Record request: Response value, item anti-IL-12Rβ2 VHH clone 3CAHS102 (VHH, not shown: small tags and cut ends, tested as periplasmic extract) VHH: QVQLQESGGGLVQPGGSLRLSCAASGSILRINLMGWYRQVPGKQRELVAEMSTGGSTTYVDSVEGRFTISRDNAKNTVYLQMNSLKPEDTAVYYCNAKAWQLGRLENDDWGQGTQVTVSS
output: 0.323

Data provenance is patent US20260209362A1.
